System: BT-549 breast
Assay: NCI tumour cell line growth inhibition, 48 h; in the data active = GI50 below about 0.43 µM; inactive = the rest
Outcomes: T for active, F for inactive

1) COc1cc(NCCN=C(N)NC(N)=NC(C)C)c2ncccc2c1 ... F
2) COc1cc(-n2ccnc2)cc(OC)c1OC ... F
3) Nc1ccccc1C#C/C=C\C#Cc1c(F)c(F)c(F)c(F)c1F ... F
4) Cc1cc(Nc2cc(N3CCN(C)CC3)nc(Sc3ccc(NC(=O)C4CC4)cc3)n2)n[nH]1 ... F
5) COc1cc(C2C3=C(COC3=O)N(CCO)c3cc4c(cc32)OCO4)cc(OC)c1O (stereo not given) ... F
6) O=C(NCc1ccco1)c1cccc(NC2=C(Cl)C(=O)N(Cc3ccccc3)C2=O)c1 ... F
7) CN1CCN(Cc2ccc3c(NNC(=O)c4ccccc4)nc4cc(F)ccc4n23)CC1 ... F
8) O=C(Nc1ccccc1O)c1ccc(NS(=O)(=O)c2cccc3cccnc23)cc1 ... F
9) COc1ccc(N(/C=C/C(=O)C(F)(F)F)CC(=O)c2ccc(Cl)cc2)cc1 ... F
10) CCOC(=O)c1cnn2c3ccccc3n(S(=O)(=O)c3ccc(OC)cc3)c12 ... T

###

Test system: RPMI-8226 leukemia
Assay: NCI tumour cell line growth inhibition, 48 h
EXPERIMENTAL ENDPOINT: TGI

1. CN(/N=C/c1cccc2cccnc12)c1c([N+](=O)[O-])cc([N+](=O)[O-])cc1[N+](=O)[O-] ... > 100 µM
2. CC1NC(=O)C2=C1C(N)=NC(=O)C2 (stereo unspecified) ... > 100 µM
3. O=[N+]([O-])/C(C(Cl)=C(Cl)Cl)=C(\N1CCCCC1)n1nnc2ccccc21 ... 38.6 µM
4. CN(C(=O)Cc1cc(Cl)c(Cl)cc1NC(=O)CN)[C@H]1CCCC[C@@H]1N1CCCC1 ... 94 µM
5. CC/C=C/C[C@H](O)[C@H]1C[C@H]2O[C@H](CC(=O)OC)C[C@H]2O1 ... > 100 µM
6. COc1cc(NC=C2C(=O)OC(C)(C)OC2=O)c(OC)c(C)c1OC ... > 100 µM
7. CCC(O)c1ccc(N=Cc2ccccc2O)cc1 (stereo unspecified) ... > 100 µM
8. COC(=O)/C=C\C(C#N)(C#N)N=Cc1sccc1C ... > 24.6 µM
9. Cc1ccc(S(=O)(=O)N/N=C2/CC3CCC4CC2CC34)cc1 (stereo unspecified) ... > 100 µM
10. N#CCN(CC#N)C1CC=CCC1N(CC#N)CC#N (stereo unspecified) ... > 100 µM
11. CCOC(=O)C1([Se]c2ccccc2)CCCC1=O (stereo unspecified) ... 55.4 µM

###

System: NCI-H460 lung
Assay: NCI tumour cell line growth inhibition, 48 h
Reported values of TGI for individual entries
EXPERIMENTAL ENDPOINT: TGI

1) c1ccc([As]=[As]c2ccccc2)cc1 (centres undefined) ... 4.15 µM
2) Cc1cnc(Nc2ccc(N3CCN(C)CC3)cc2)nc1Nc1ccc(Cl)c(NS(=O)(=O)C(C)(C)C)c1 ... 10.3 µM
3) COc1cc(/C=C/c2cc(/C=C/c3ccc(O)c(OC)c3)n(C(=O)Nc3ccc(Cl)cc3)n2)ccc1O ... 1.85 µM
4) CC[C@H](C)C1=C(O)[N@+]2([O-])Oc3ccc(-c4c(O)c(O)c(-c5ccc(O)cc5)c(OC(C)=O)c4OC(C)=O)cc3O[C@]2([C@@H](C)CC)C(=O)N1O ... > 50 µM
5) CCOC(=O)C(C)c1nc2ccc(C(F)(F)F)cc2[nH]c1=O (centres undefined) ... > 100 µM
6) O=c1[nH]c(=O)n(C2OC(CO)C(O)C2O)cc1OCC(F)(F)F (centres undefined) ... > 100 µM
7) O=S(=O)(Nc1ccc(F)c(Cl)c1)c1ccc(-c2cnc(C3CC3)o2)cc1 ... 4.29 µM
8) Clc1ccccc1C(Nc1ncccn1)Nc1ncccn1 ... > 100 µM
9) Nc1nc(=O)n([C@@H]2CS[C@H](CO)O2)cc1F ... > 100 µM
10) Cc1nc2[nH]ncn2c(=O)c1CCO ... > 10 µM
11) CC1=C[C@H]2C[C@H](C)[C@H]3CC[C@H](C)[C@]4(C1)C(=O)C(O)=C(C)C(=O)[C@@]324 ... > 100 µM
12) C=C(C)C(=O)O[C@@H]1C/C(C)=C\[C@H](OC(C)=O)C[C@](C)(O)/C=C2/OC(=O)C(COC(C)=O)=C21 ... 2.35 µM
13) O=C(Nc1cc(Oc2cc(F)c(NC(=O)C3(C(=O)Nc4ccc(F)cc4)CC3)cc2F)ccn1)C1CC1 ... > 34.7 µM
14) O=C1C2C3C=C4c5ccccc5N(c5ccccc5)C4(C2C(=O)N1c1ccc(Br)cc1)[C@H]1C(=O)N(c2ccc(Br)cc2)C(=O)[C@@H]31 (some centres undefined) ... > 100 µM
15) CCOC(=O)C(CNc1ccc(O)cc1)NC(=O)c1ccccc1 (centres undefined) ... > 100 µM
16) C#CCN(C(=O)C(F)(F)F)c1ccc(C(=O)c2ccc(N(CC#C)C(=O)C(F)(F)F)cc2)cc1 ... > 100 µM
17) O=C(C[P+](c1ccccc1)(c1ccccc1)c1ccccc1)C[P+](c1ccccc1)(c1ccccc1)c1ccccc1 ... 2.3 µM
18) CCn1c(=O)c2nc(SC)sc2n(-c2ccccc2)c1=O ... > 100 µM
19) NC(Cc1ncccn1)C(=O)O (centres undefined) ... > 100 µM

###

System: RPMI-8226 leukemia
Test: NCI tumour cell line growth inhibition, 48 h; in the data active means GI50 below about 0.43 µM; inactive means the rest
Outcomes: active, inactive

1. Cc1ccc(-c2nc([P+](c3ccccc3)(c3ccccc3)c3ccccc3)c(Nc3ccccc3)o2)cc1 ... active
2. COc1cc(NCCN=C(N)NC(N)=NC(C)C)c2ncccc2c1 ... inactive
3. O=C(/C=C/C12c3ccccc3C(c3ccccc31)C1C(=O)NC(=O)C12)c1ccc(Cl)cc1 (stereo not given) ... inactive
4. O=S(=O)(Nc1ccc(F)c(Cl)c1)c1ccc(-c2cnc(C3CC3)o2)cc1 ... active
5. NC(=S)N=Nc1c(O)c2ccccc2c2ccccc12 ... inactive
6. O=C(NCc1ccco1)c1cccc(NC2=C(Cl)C(=O)N(Cc3ccccc3)C2=O)c1 ... inactive
7. NC(=Nc1ccc(N)cc1)C(N)=Nc1ccc(N)cc1 ... inactive
8. COc1ccc(Nc2nc3cc(N)cc(N)c3nc2-c2ccccc2)cc1OC ... inactive
9. O=c1cc(-c2ccccc2)oc2cc(OC/C(=N/O)c3ccc(F)cc3)ccc12 ... inactive
10. O=C(N/N=C/c1cc(Cl)cc(Cl)c1[O-])c1ccccc1.O=C(N/N=C/c1cc(Cl)cc(Cl)c1[O-])c1ccccc1.[Co+2] ... inactive
11. COc1ccc(C2C=C(c3ccc(Cl)cc3)N=C3SC=C(C)N32)c(Br)c1 (stereo not given) ... inactive
12. c1ccc([As]=[As]c2ccccc2)cc1 (stereo not given) ... inactive
13. O=C(C[P+](c1ccccc1)(c1ccccc1)c1ccccc1)C[P+](c1ccccc1)(c1ccccc1)c1ccccc1 ... active
14. Cc1ccc(NCCN(C)C)c2c(=O)c3ccccc3sc12 ... inactive
15. COc1cccc(C2C3=C(COC3=O)N(CCO)c3cc4c(cc32)OCO4)c1 (stereo not given) ... inactive

###

Quick note: these are GI50 numbers for system: NCI-H460 lung
EXPERIMENTAL ENDPOINT: GI50

1) COc1cc(NCCN=C(N)NC(N)=NC(C)C)c2ncccc2c1 ... 5670 nM
2) c1ccc([As]=[As]c2ccccc2)cc1 (stereo not given) ... 2010 nM
3) Cc1ccc(NCCN(C)C)c2c(=O)c3ccccc3sc12 ... 1410 nM
4) O=C(Nc1ccccc1O)c1ccc(NS(=O)(=O)c2cccc3cccnc23)cc1 ... 1050 nM
5) Cc1cc(Cl)ccc1Nc1nc(C(F)(F)F)ccc1C(=O)N/N=C/c1ccccc1Cl ... 850 nM

###

Reported values of TGI for individual entries
Tested on: OVCAR-8 ovarian
Test: NCI tumour cell line growth inhibition, 48 h
EXPERIMENTAL ENDPOINT: TGI

1. CSc1c(CC(=O)Nc2ccc(Cl)cc2)n(Cc2ccccc2)c2ccccc12 ... 41 µM
2. COc1ccc(C2C=C(c3ccc(Cl)cc3)N=C3SC=C(C)N32)c(Br)c1 (centres undefined) ... 50.7 µM
3. CCN(CC)CCn1[nH]c2c3ccc(=O)cc3sc3c(NCCN)ccc1c32 ... 12.7 µM
4. CC(=O)C(=[N+]=[N-])C(=O)N(C)CCC#N ... > 10 µM
5. CC(C)(C)C1=CC(=C2C=Cc3ccccc3O2)C=C(C(C)(C)C)C1=O ... > 51.8 µM
6. Cc1cccc(C)c1Nc1nc(C)c(C(=O)CC(=O)C(=O)Nc2c(C(C)C)cccc2C(C)C)s1 ... > 100 µM
7. S=C(N1CCN(c2cccc(Cl)c2)CC1)N1CCN(c2cccc(Cl)c2)CC1 ... > 100 µM
8. O=C(C/C(CCC(=O)N(Cc1ccccc1)Cc1ccccc1)=N/Nc1ccc([N+](=O)[O-])cc1[N+](=O)[O-])c1ccccc1 ... > 100 µM
9. Cc1cc(Nc2cc(N3CCN(C)CC3)nc(Sc3ccc(NC(=O)C4CC4)cc3)n2)n[nH]1 ... > 10 µM
